Target: T1, huROR1-His (human ROR1 ECD AA30-406 with C-terminal His tag, made in house) (human, UniProt Q01973 30-406)
T1 construct: range 30-406; Expressed in HEK293; also called antigen protein huROR1-His; not shown: C-terminal His tag
T1 sequence (Q01973 30-406 limits assumed): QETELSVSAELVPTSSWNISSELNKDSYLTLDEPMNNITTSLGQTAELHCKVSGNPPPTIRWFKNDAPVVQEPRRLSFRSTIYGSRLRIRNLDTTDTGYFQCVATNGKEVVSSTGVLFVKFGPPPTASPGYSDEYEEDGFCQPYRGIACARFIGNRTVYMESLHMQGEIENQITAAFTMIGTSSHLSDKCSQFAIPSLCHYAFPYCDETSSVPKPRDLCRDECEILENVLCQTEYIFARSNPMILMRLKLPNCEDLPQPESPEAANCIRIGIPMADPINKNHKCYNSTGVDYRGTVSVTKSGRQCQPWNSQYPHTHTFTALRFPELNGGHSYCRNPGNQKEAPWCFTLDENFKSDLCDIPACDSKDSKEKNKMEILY
Protocol notes: Gator (BLI) Advanced Kinetics; antibody 30 nM, huROR1-His 480-7.5 nM
Measurement name: koff (s⁻¹)
Give the quantity in s⁻¹, number only.

Output koff of B62 (chimeric antibody) (antibody, human IgG1, kappa, V domains shown, ExpiCHO expression) VH: DVKLVESGGGLVQPGGSLKLSCAASGFTFSSYVMSWVRQTPDKRLELVATINSNGGNTYYPDSVKGRFTISRDNAKNTLYLQMSSLKSEDTAMYYCARDSLGLRRRDYAMDYWGQGTSVTVSS VL: DIVLTQSPASLSMAIGEKVTIRCVTSIDIDDDVNWYQQKPGKPPKLLISAGNTLRPGVPSRFSSSGYGTDFVFTIENMLSEDVADYYCLQSDNLPYTFGGGTKLEIKR
0.000373

Identify measured koff corresponding to B74 (chimeric antibody) (antibody, human IgG1, kappa, V domains shown, ExpiCHO expression) VH: EVMLVESGGNLVKPGGSLKLSCAASGFTFSIYAMSWVRQTPEKRLEWVASISGGGTAYYPDSVKGRFTISRDNARNILYLQMSSLRSEDTAIYYCARGYYYGGSPYWHFDVWGAGTTVTVSS VL: DIKMTQSPSSMYASLGERVTITCKASQDINSYLSWFQQKPGKSPKTLIYRANRLVDGVPSRFSGSGSGQDYSLTISSLEYEDIGIYYCLQIDEFPYTFGGGTKLEIKR
0.000464

Dear colleague, please send me the reported koff for B39 (chimeric antibody) (antibody, human IgG1, kappa, V domains shown, ExpiCHO expression) VH: EVKLVESGGGLVKPGGSLKLSCAASGFTFSTYAMSWVRQTPEKRLEWVASISTGASTYYPDSVKGRFTISRDNARNILYLQMSSLRSEDTAMYYCAREETTTAALYYAMDYWGQGTSVTVSS VL: DIKITQSPSSMYASLGERVTITCKASQDINNYLSWFQQKPGKSPKTLIYRANRLVDGVPSRFSGSGSGQDYSLTISSLEYEDMGIYYCLQFDEFPYTFGGGTKLEIKR when you can.
0.00135

Origin of the recorded values: patent US20250177546A1
